assay: Inhibition of phorbol ester-induced ornithine decarboxylase in human MCF7 cells after 6 hrs
Attribute Measured: pIC50
Friendly reminder that pIC50 comes from taking -log10 of the concentration in mol/L.

Worked set:
COc1cc(/C=C/c2cc(OC)c3c(c2)OC(C)(C)C=C3)ccc1O
5.13
COc1cc(/C=C/C(=O)c2ccc3c(c2O)C=CC(C)(C)O3)ccc1O [3-methoxy-4-hydroxylonchocarpin]
5.44
Oc1ccc(/C=C/c2cc(O)cc(O)c2)cc1
4.72

# pIC50 of COc1cc(/C=C/c2ccc3c(c2)OC(C)(C)C=C3)cc(OC)c1OC = 5.41

Notebook: O=c1c(-c2ccc(O)cc2)coc2cc(O)cc(O)c12 , pIC50 read as 4.59

compound COc1ccc([C@@H]2CC(=O)c3cc(CC=C(C)C)c4c(c3O2)C=CC(C)(C)O4)cc1OC , pIC50 observed: 5.64

Just so you know, measured pIC50 for COc1cc([C@@H]2CC(=O)c3c(O)c(CC=C(C)C)c4c(c3O2)C=CC(C)(C)O4)ccc1O came out at 5.96
